- TESTED_ON: Cell division control protein 42 homolog (Homo sapiens)
- TEST_SUMMARY: constitutively active Cdc42 guanine nucleotide binding blockers – biochemical, activated mutant, bead multiplex, flow cytometry, round 2, selectivity assay for Rab7 inhibitor project, SAR follow-up (AID 588624)
- EXPERIMENTAL_CONTEXT: GST-Cdc42 act beads, Bodipy-GTP binding
pEC50: −log10 of the molar value.
Mark Criterion met for reported pEC50 of 5 or greater; mark Criterion not met for anything smaller.

Query block: Determine whether this compound has pEC50 no lower than 5: `CC1(C)Cc2c(sc(NC(=S)NC(=O)c3ccc(Br)cc3)c2C(=O)O)CO1`
Result block: Criterion not met
